- assay-explanation: chemical genetic growth profiling, strain panel (AID 1159580);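 further: tested at 20 µM; growth read once vehicle control cultures reached saturation at 30 °C; 1 = growth at the plate median or of vehicle wells; lower values mean less growth of the strain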
- run-parameters: S. cerevisiae deletion strains, growth OD, locus YLR058C, strain SHM2, stronger effect = lower value
The campaign covered roughly 5,500 compounds. About 2,000 (36%) were called active. Inconclusive results (about 18%) are left out. This is one part of the list.

{"molecule": "CC(C)c1cc2c(c(O)c1O)[C@@]1(C(=O)O)CCCC(C)(C)C1CC2 (stereo partly specified)", "normalized growth": 1}
{"molecule": "COP(=O)(NC(C)=O)SC (stereo unspecified)", "normalized growth": 1.01}
{"molecule": "COc1ccc(NS(=O)(=O)c2ccc(N)cc2)nn1", "normalized growth": 1.03}
{"molecule": "CCCC(=O)Nc1ccc(OCC(O)CNC(C)C)c(C(C)=O)c1 (stereo unspecified)", "normalized growth": 1.01}
{"molecule": "CNC(C)[C@@H]1CC[C@@H](N)[C@@H](OC2[C@@H](N)C[C@@H](N)[C@H](OC3OC[C@](C)(O)[C@H](NC)[C@H]3O)[C@H]2O)O1 (stereo partly specified)", "normalized growth": 1.03}
{"molecule": "CCCN(CCC)c1c([N+](=O)[O-])cc(C(F)(F)F)cc1[N+](=O)[O-]", "normalized growth": 1}
{"molecule": "CN1CCN(C2=Nc3cc(Cl)ccc3Nc3ccccc32)CC1", "normalized growth": 1.01}
{"molecule": "C[N+]1(C)CCCC(OC(=O)C(O)(c2ccccc2)c2ccccc2)C1 (stereo unspecified)", "normalized growth": 0.998}
{"molecule": "Cn1cnc2c1c(=O)[nH]c(=O)n2C", "normalized growth": 1.01}
{"molecule": "Cn1c(=O)c2c(ncn2C)n(C)c1=O", "normalized growth": 1}
{"molecule": "COc1cc2cccc(OC)c(=O)c2c(OC)c1OC", "normalized growth": 1.01}

* * *

- assay-explanation: chemical genetic growth profiling, strain panel (AID 1159580)
- run-parameters: S. cerevisiae strains, growth OD, strain wild type, stronger effect = lower value
Among all 5,500 compounds or so, about 2,000 (36%) were called active. Roughly 18% stayed inconclusive and do not appear here. The list shows a part of the results.
Listed here: items and their measured normalized growth.
outcome-measure: normalized growth

{"molecular-string": "Cc1cc(O)c2c(c1)C(=O)c1cc(O)cc(O)c1C2=O", "data-value": 0.715}
{"molecular-string": "COc1cc(O)c2c(c1)C(=O)c1cc(C)cc(O)c1C2=O", "data-value": 1.01}
{"molecular-string": "CC(C)N=C(N)N=C(N)Nc1ccc(Cl)cc1", "data-value": 1.01}
{"molecular-string": "NC(=NCCCCCCN=C(N)N=C(N)Nc1ccc(Cl)cc1)N=C(N)Nc1ccc(Cl)cc1", "data-value": 0.0489}
{"molecular-string": "O=C(O)c1cccnc1C(=O)O", "data-value": 1.02}
{"molecular-string": "CC(C)OC(=O)Nc1cccc(Cl)c1", "data-value": 0.997}

* * *

Catalogue of normalized growth values
- assay-explanation: chemical genetic growth profiling, strain panel (AID 1159580);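 further: tested at 20 µM; growth read once vehicle control cultures reached saturation at 30 °C; 1 = growth at the plate median or of vehicle wells; lower values mean less growth of the strain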
- run-parameters: S. cerevisiae deletion strains, growth OD, locus YFR010W, strain ubp6, stronger effect = lower value
Screen size: about 5,500 compounds; about 2,000 (36%) were called active. Roughly 18% stayed inconclusive and do not appear here. Some of the results follow.

{"compound": "CCCC(=O)Nc1ccc(OCC(O)CNC(C)C)c(C(C)=O)c1 (stereo unspecified)", "normalized growth": 1.01}
{"compound": "O=C1C=C(O)c2ccccc2C1=O", "normalized growth": 0.896}
{"compound": "NNCc1ccccc1", "normalized growth": 0.989}
{"compound": "O=C1NS(=O)(=O)c2ccccc21", "normalized growth": 1.03}
{"compound": "O=C(Nc1ccc([N+](=O)[O-])cc1Cl)c1cc(Cl)ccc1O", "normalized growth": 0.959}
{"compound": "O=C1c2ccccc2C(=O)c2ccccc21", "normalized growth": 0.982}
{"compound": "O=C(O)[C@H]1/C(=C/CO)O[C@@H]2CC(=O)N21", "normalized growth": 1.02}
{"compound": "COc1ccc(-c2c(O)c3c(OC)c4c(cc3oc2=O)OC(C)(C)C=C4)cc1", "normalized growth": 0.967}
{"compound": "C=C[C@H]1CN2CC[C@H]1C[C@H]2[C@H](O)c1ccnc2ccccc12", "normalized growth": 1.01}
{"compound": "COc1cc([C@@H]2c3cc4c(cc3[C@H](O)[C@H]3COC(=O)[C@H]23)OCO4)cc(OC)c1OC", "normalized growth": 1.02}
{"compound": "CC(=CC1CCC(C)C2C1=C(C)CC2O)C(=O)O (stereo unspecified)", "normalized growth": 1.03}

* * *

- assay-explanation: chemical genetic growth profiling, strain panel (AID 1159580);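 further: tested at 20 µM; growth read once vehicle control cultures reached saturation at 30 °C; 1 = growth at the plate median or of vehicle wells; lower values mean less growth of the strain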
- run-parameters: S. cerevisiae deletion strains, growth OD, locus YLR258W, strain gsy2
Among all 5,500 compounds or so, about 2,000 (36%) were called active. About 18% were inconclusive and are not listed. Rule as the data show it: active = normalized growth mostly below about 0.91 (no sharp cut-off); inconclusive = no clear call, values can overlap the other calls; inactive = mostly above about 0.92. The list shows a part of the results.
Outcome codes: y = active, n = inactive

{"compound": "O=C(O)c1cccnc1C(=O)O", "class-label": "n"}
{"compound": "CCCN(CCC)c1c([N+](=O)[O-])cc(C(F)(F)F)cc1[N+](=O)[O-]", "class-label": "n"}
{"compound": "NC(Cc1ccc(Cl)cc1)C(=O)O (centres undefined)", "class-label": "n"}
{"compound": "CN1CCC[C@H]1c1cccnc1", "class-label": "n"}
{"compound": "O=C(O)C1=C(CSc2nnnn2CS(=O)(=O)O)CS[C@@H]2C(NC(=O)[C@H](O)c3ccccc3)C(=O)N12 (some centres undefined)", "class-label": "n"}
{"compound": "C/C(=C\\CO)CC[C@H](C)CCC[C@H](C)CCCC(C)C", "class-label": "y"}
{"compound": "NC(=NCCCCCCN=C(N)N=C(N)Nc1ccc(Cl)cc1)N=C(N)Nc1ccc(Cl)cc1", "class-label": "y"}
{"compound": "CC(=O)c1c(O)cc(O)cc1O", "class-label": "n"}
{"compound": "CC(C)N1C(=O)c2ccccc2NS1(=O)=O", "class-label": "n"}
{"compound": "COC(=O)CC1C(C)(C(=O)c2ccoc2)CC2OCC34C(CC(=O)OC)C5(C)CC36OC3(C)OC1(C(OC(C)=O)C6(OC(C)=O)C5OC(=O)C(C)C)C24O3 (centres undefined)", "class-label": "n"}
{"compound": "O=C(O)c1cc(=O)c2ccccc2[nH]1", "class-label": "n"}
{"compound": "O=C1C=CC(=O)c2c(O)cccc21", "class-label": "n"}
{"compound": "CC(=O)Oc1c(C)c(C)c2c(c1C)CCC(C)(CCCC(C)CCCC(C)CCCC(C)C)O2 (centres undefined)", "class-label": "n"}
{"compound": "CC(=CC1CCC(C)C2CCC(C)=C12)C(=O)O (centres undefined)", "class-label": "n"}
{"compound": "C=C(C)C1Cc2c(ccc3c(=O)c4c(oc23)COc2cc(OC)c(OC)cc2-4)O1 (centres undefined)", "class-label": "n"}
{"compound": "CC(C)C1CCC(C(=O)N[C@@H](Cc2ccccc2)C(=O)O)CC1 (some centres undefined)", "class-label": "n"}
{"compound": "CN1CCN(C2=Nc3cc(Cl)ccc3Nc3ccccc32)CC1", "class-label": "n"}
{"compound": "CC(=O)OC1CCC23CC1(C)CCC2C(C)(C)CC3OC(C)=O (centres undefined)", "class-label": "n"}
{"compound": "O=C(c1ccccc1)c1ccc2n1CCC2C(=O)O (centres undefined)", "class-label": "n"}
{"compound": "CCCCCC/C=C\\CCCCCCCc1cccc(O)c1C(=O)O", "class-label": "n"}
{"compound": "COc1cc2c(cc1OC)C(C)NCC2 (centres undefined)", "class-label": "n"}
{"compound": "CCCCN(CC)c1c([N+](=O)[O-])cc(C(F)(F)F)cc1[N+](=O)[O-]", "class-label": "n"}
{"compound": "CC(=O)OC[C@@]1(O)C[C@@]23CCC4c5ccoc5CC[C@]4(C)C2CC[C@@H]1C3 (some centres undefined)", "class-label": "n"}
{"compound": "Oc1cccc2cccnc12", "class-label": "y"}

* * *

- assay-explanation: chemical genetic growth profiling, strain panel (AID 1159580);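 further: tested at 20 µM; growth read once vehicle control cultures reached saturation at 30 °C; 1 = growth at the plate median or of vehicle wells; lower values mean less growth of the strain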
- run-parameters: S. cerevisiae deletion strains, growth OD, locus YLR371W, strain rom2, stronger effect = lower value
The whole screen tested about 5,500 compounds, of which about 2,000 (36%) were called active. Not shown: some 18% with an inconclusive outcome. This is one part of the list.

{"compound": "CCCc1ncc(C[n+]2ccccc2C)c(N)n1", "normalized growth": 0.996}
{"compound": "ClC1C(Cl)C(Cl)C(Cl)C(Cl)C1Cl (stereo unspecified)", "normalized growth": 0.944}
{"compound": "O=C(CCc1ccc(O)cc1)c1c(O)cc(O)cc1O", "normalized growth": 1}
{"compound": "O=C1C=C(O)c2ccccc2C1=O", "normalized growth": 0.966}
{"compound": "CCCCCC/C=C\\CCCCCCCc1cccc(O)c1C(=O)O", "normalized growth": 1}
{"compound": "CC(C)=CCC/C(C)=C/CO", "normalized growth": 0.985}
{"compound": "COP(=O)(NC(C)=O)SC (stereo unspecified)", "normalized growth": 1}
{"compound": "CC(=O)CCCCn1c(=O)c2c(ncn2C)n(C)c1=O", "normalized growth": 0.993}
{"compound": "Cn1c(=O)[nH]c2ncn(C)c2c1=O", "normalized growth": 0.986}
{"compound": "Cn1cnc2c1c(=O)[nH]c(=O)n2C", "normalized growth": 1.03}
{"compound": "Cn1c(=O)c2c(ncn2CCCl)n(C)c1=O", "normalized growth": 1.03}
{"compound": "CC(C)OC(=O)Nc1cccc(Cl)c1", "normalized growth": 0.974}
{"compound": "COc1cc(O)ccc1C(C)=O", "normalized growth": 0.973}
{"compound": "C=C(C)C1Cc2c(ccc(C(=O)O)c2O)O1 (stereo unspecified)", "normalized growth": 0.957}
{"compound": "Cn1c(=O)[nH]c2nc[nH]c2c1=O", "normalized growth": 1}
{"compound": "O=C1c2ccccc2C(=O)c2ccccc21", "normalized growth": 0.975}
{"compound": "O=C(O)CC[N+](=O)[O-]", "normalized growth": 0.969}
{"compound": "CC(=O)NS(=O)(=O)c1ccc(N)cc1", "normalized growth": 0.98}
{"compound": "CC(C)[C@@H]1CC[C@@H](C)CC1=O", "normalized growth": 1}
{"compound": "CC(=O)O[C@@H]1C2CC[C@@H]3C1(C[C@@H](O)[C@@]1(O)[C@@H](C[C@H](O)C1(C)C)[C@]3(C)O)C[C@@]2(C)O (stereo partly specified)", "normalized growth": 1}
{"compound": "CC(=O)OC1CCC2(O)CC1(C)CCC1C2CC1(C)C (stereo unspecified)", "normalized growth": 1.02}
{"compound": "CC(=O)Nc1c(I)cc(I)c(C(=O)O)c1I", "normalized growth": 0.993}
{"compound": "C[C@H]1C(=O)CCC2[C@]3(C)CC[C@@]4(C)C5CC(C)(C)CC[C@]5(C)CC[C@]4(C)C3CC[C@@]21C (stereo partly specified)", "normalized growth": 1}
{"compound": "CC(C)C1CCC(C(=O)N[C@@H](Cc2ccccc2)C(=O)O)CC1 (stereo partly specified)", "normalized growth": 1.01}
{"compound": "COC(=O)c1cc(OC)c(=O)c2c(OC)c(OC)ccc2c1", "normalized growth": 0.977}
{"compound": "COc1ccc([C@@H](C)C(=O)c2ccc(O)cc2O)cc1", "normalized growth": 0.921}
